Hey, just so you know, these numbers are from patent US11395828B2.

Assay: Particle size by laser diffraction
Type: physicochemical
Settings: spironolactone solid prior to composition manufacture
endpoint: particle size D(v, 0.1) (µm)
The figure you give is taken to be in µm; do not add the unit.

Tell me the measured particle size D(v, 0.1) of CC(=O)S[C@@H]1CC2=CC(=O)CC[C@]2(C)[C@H]2CC[C@@]3(C)[C@@H](CC[C@@]34CCC(=O)O4)[C@H]12 , please.
7.47
